- target_of_assay: His6-AspH315–758 (human aspartate/asparagine-β-hydroxylase, AspH) (Homo sapiens)
- Construct: N-Terminally His6-tagged human AspH315–758 (His6-AspH315–758) was produced in E. coli BL21 (DE3) cells; made in house; host or cells: E. coli BL21 (DE3), pET-28a(+) vector
- Sequence (Q12797 315-758): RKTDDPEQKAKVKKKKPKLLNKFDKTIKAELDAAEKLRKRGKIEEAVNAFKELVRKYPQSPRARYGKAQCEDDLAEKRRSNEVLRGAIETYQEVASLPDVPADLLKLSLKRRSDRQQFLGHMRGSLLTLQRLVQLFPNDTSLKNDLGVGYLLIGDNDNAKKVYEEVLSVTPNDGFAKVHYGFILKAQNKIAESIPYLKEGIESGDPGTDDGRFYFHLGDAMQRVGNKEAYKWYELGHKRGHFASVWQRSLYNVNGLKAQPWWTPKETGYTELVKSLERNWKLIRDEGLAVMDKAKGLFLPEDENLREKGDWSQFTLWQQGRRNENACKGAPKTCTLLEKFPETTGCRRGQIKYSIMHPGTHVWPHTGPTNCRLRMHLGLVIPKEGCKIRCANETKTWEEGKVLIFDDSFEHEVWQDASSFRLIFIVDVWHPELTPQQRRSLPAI
- test_protocol: SPE-MS AspH inhibition assay (LOPAC screen at fixed 20 μM and IC50 dose-response), hydroxylation of cyclic peptide hFX-CP101–119
- Format: biochemical
Where a name gives a salt, the structure may show the parent alone.
# Lookup of reported Plate 1 (% inhibition) keyed by entry

Known Plate 1 (% inhibition) results, listed for orientation:
# compound, Plate 1 (% inhibition)
records = [
    ("CC(N)(Cc1ccc(O)cc1)C(=O)O (racemic) [DL-alpha-Methyl-p-tyrosine]", "7.19%"),
    ("CC(C)(C)c1ccc(S(=O)(=O)/C=C/C#N)cc1 [Bay 11-7085]", "9.38%"),
    ("Cc1cc([C@@H]2CCCN2C)on1.Cl [ABT-418 hydrochloride]", "0.56%"),
    ("COC(=O)C1=CCCN(C)C1 [Arecoline hydrobromide]", "-3.47%"),
]

Plate 1 (% inhibition) in this record for C=CCc1ccccc1OCC(O)CNC1(C)CCC(C(C)(C)NC(=O)CBr)CC1 (centres unmarked) [Bromoacetyl alprenolol menthane] : -88.92%

Plate 1 (% inhibition) in this record for Brc1c(Br)c(Br)c2[nH]cnc2c1Br [TBBz] : 8.67%

====

- target_of_assay: His6-AspH315–758 (human aspartate/asparagine-β-hydroxylase, AspH) (Homo sapiens, UniProt Q12797)
- Construct: N-Terminally His6-tagged human AspH315–758 (His6-AspH315–758) was produced in E. coli BL21 (DE3) cells; made in house; host or cells: E. coli BL21 (DE3), pET-28a(+) vector
- test_protocol: SPE-MS AspH inhibition assay (LOPAC screen at fixed 20 μM and IC50 dose-response), hydroxylation of cyclic peptide hFX-CP101–119
- Format: biochemical
- conditions: LOPAC compound at fixed 20 uM; substrate conversion, plate 1
Counter-ions that a name gives are not always drawn.
measurement_type: Plate 1 (% conversion) (%)
Give a bare numeral; the unit % is implied.

# compound, Plate 1 (% conversion) [%]
data = [
    ("Nc1nc2c(nc(Br)n2[C@@H]2O[C@@H]3COP(=O)([O-])O[C@H]3[C@H]2O)c(=O)[nH]1.[Na+] [8-Bromo-cGMP sodium]", 34.11),
    ("CN(C)CCC=C1c2ccccc2C=Cc2ccccc21 [Cyclobenzaprine hydrochloride]", 41.20),
    ("CC(C[N+](C)(C)C)OC(N)=O (stereo not shown) [Bethanechol chloride]", 38.85),
]

Plate 1 (% conversion) in this record for CC(=O)NC[C@H]1CN(c2ccc(N3CCOCC3)c(F)c2)C(=O)O1 : 39.41

src = paper PMC7251097
